TEST_SYSTEM: T1, HER2-ECD DIII Fc (human, UniProt P04626 342-510, limits assumed)
T1 construct: domain: domain 3; also called domain 3 of the extracellular domains of the HER2 protein; not shown: Hinge and Fc region (CH2-CH3) of human IgG1, at the C-terminus
PROCEDURE_SUMMARY: ELISA on plate-coated HER2 domain-Fc fusion (1 µg/mL), anti-human IgG-HRP, Abs 450 nm; antibody concentration not given

BINDER	binding result
hz2G10 (antibody, V domains shown, Humanized antibody, detected with anti-human IgG-HRP; Only the variable domains are tied to the name; also called humanized 2G10 antibody) VH: EVQLVESGGGLVQPGGSLRLSCAASGFTFSDYYMYWVRQAPGKGLEWVAYINSGGGSTYYPDTVKGRFTISRDNAKNSLYLQMNSLRAEDTAVYYCAREALYDYDYAMDYWGQGTTVTVSS VL: DIVMTQSPLSLSVTPGQPASISCKSSQSLLYSNGKTYLNWLLQKPGQSPQRLIYLVSKLDSGVPDRFSGSGSGTDFTLKISRVEAEDVGVYYCVQGTHFPLTFGGGTKVEIK	no binding
1G3 (antibody, V domains shown) VH: EVQLQQSGAELVKPGASVKLSCTASDFNIVDTYMHWVKQRPEQGLEWIGRIDPANGYTRYDPNFQGKATITADTSSNTAYLQLSSLTSEDTAVYYCARYYYGFYAMDYWGQGTTVTVSS VL: DIVMTQSHKFMSTSVGDRVSITCKASQDVSTAVAWYQQKPGQSPKLLIYSASYRYTGVPDRFTGSGSGTDFTFTISSVQAEDLAVYYCQQHYSTPPTFGGGTKLELK	no binding
hz8G11 (antibody, V domains shown, Humanized antibody, detected with anti-human IgG-HRP; also called humanized 8G11 antibody) VH: QVQLVQSGQEVKKPGASVKVSCKASGYSFTGYYMHWVRQAPGQGLEWIGHINPNNGGTSYNQKFKGRTTLTVDKSISTAYMELSRLRSDDTAVYYCAREEAFAYWGQGTLVTVSS VL: DIQMTQSPSSLSASVGDRVTISCRASQDISNYLNWYQQKPGKAPKLLIYYTSRLHSGVPSRFSGSGSGTDFSLTISSLQPEDIATYYCQQGITPPWTFGGGTKVEIK	no binding
